Data credit: ChEMBL document CHEMBL5346868

Assay: Selectivity index, ratio of CC50 for human RD cells to EC50 for antiviral activity against human Enterovirus 71
Assay type: toxicity
Details: read-out: Ratio CC50/EC50
PROPERTY_MEASURED: selectivity ratio

{"MOLECULE": "CSC[C@H]1O[C@@H](n2cnc3c(NCc4cccc(C)c4)ncnc32)[C@H](O)[C@@H]1O", "MEASUREMENT_QUALIFIER": ">", "QUANTITATIVE_READOUT": 83.5}
{"MOLECULE": "CSC[C@H]1O[C@@H](n2cnc3c(N4CCc5ccccc54)ncnc32)[C@H](O)[C@@H]1O", "MEASUREMENT_QUALIFIER": "=", "QUANTITATIVE_READOUT": 3.4}
{"MOLECULE": "OC[C@H]1O[C@@H](n2cnc3c(NCc4ccc(Cl)cc4)ncnc32)[C@H](O)[C@@H]1O", "MEASUREMENT_QUALIFIER": ">", "QUANTITATIVE_READOUT": 424}
{"MOLECULE": "OC[C@H]1O[C@@H](n2cnc3c(NCc4ccccc4Cl)ncnc32)[C@H](O)[C@@H]1O", "MEASUREMENT_QUALIFIER": "=", "QUANTITATIVE_READOUT": 241}
